The origin of these recorded values is ChEMBL document CHEMBL3734658.

Test system: Hypoxia-inducible factor 1-alpha (Homo sapiens)
Measurement protocol: Inhibition of HIF-1alpha in human H1299 cells at 100 nM after 72 hrs subsequently incubated for 12 hrs under hypoxic conditions by Western blot assay relative to control
Assay type: cell-based
Condition details: values are per cent of control
With a cut-off of 90%, any response, % of control strictly below it is called Condition met; any response, % of control meeting it or above is called Condition not met.

Q) Strictly below 90%: is that where response, % of control of COc1ccc(CC(=O)c2ccc3c(c2OC)C=CC(C)(C)O3)cc1OC sits?
A) Condition met

Q) Strictly below 90%: is that where response, % of control of COc1ccc(C(C)(C)C(OC(C)=O)c2ccc3c(c2OC)C=CC(C)(C)O3)nc1OC (centres undefined) sits?
A) Condition not met

Q) Strictly below 90%: is that where response, % of control of COc1ccc(C(C)C(O)c2ccc3c(c2OC)C=CC(C)(C)O3)c(F)c1OC (centres undefined) sits?
A) Condition met

Q) Strictly below 90%: is that where response, % of control of COc1ccc(C(C)(C)C(=O)c2ccc3c(c2OC)C=CC(C)(C)O3)c(F)c1OC sits?
A) Condition met

Q) Strictly below 90%: is that where response, % of control of COc1ccc(C(C)C(O)c2ccc3c(c2OC)C=CC(C)(C)O3)nc1OC (centres undefined) sits?
A) Condition met

Q) Strictly below 90%: is that where response, % of control of COc1ccc([C@H](C)[C@@H](OC(C)=O)c2ccc3c(c2OC)C=CC(C)(C)O3)c(F)c1OC (relative stereo) sits?
A) Condition met

Q) Strictly below 90%: is that where response, % of control of CNC(=O)OC(c1ccc2c(c1OC)C=CC(C)(C)O2)C(C)c1ccc(OC)c(OC)c1F (centres undefined) sits?
A) Condition met

Next, consider the following compound.
Q) Strictly below 90%: is that where response, % of control of COc1ccc(C(C)(C)C(OC(=O)C2CC2)c2ccc3c(c2OC)C=CC(C)(C)O3)c(F)c1OC (centres undefined) sits?
A) Condition not met

###

Test system: Hypoxia-inducible factor 1-alpha (Homo sapiens) (UniProt Q16665)
Sequence (Q16665 whole entry, looked up): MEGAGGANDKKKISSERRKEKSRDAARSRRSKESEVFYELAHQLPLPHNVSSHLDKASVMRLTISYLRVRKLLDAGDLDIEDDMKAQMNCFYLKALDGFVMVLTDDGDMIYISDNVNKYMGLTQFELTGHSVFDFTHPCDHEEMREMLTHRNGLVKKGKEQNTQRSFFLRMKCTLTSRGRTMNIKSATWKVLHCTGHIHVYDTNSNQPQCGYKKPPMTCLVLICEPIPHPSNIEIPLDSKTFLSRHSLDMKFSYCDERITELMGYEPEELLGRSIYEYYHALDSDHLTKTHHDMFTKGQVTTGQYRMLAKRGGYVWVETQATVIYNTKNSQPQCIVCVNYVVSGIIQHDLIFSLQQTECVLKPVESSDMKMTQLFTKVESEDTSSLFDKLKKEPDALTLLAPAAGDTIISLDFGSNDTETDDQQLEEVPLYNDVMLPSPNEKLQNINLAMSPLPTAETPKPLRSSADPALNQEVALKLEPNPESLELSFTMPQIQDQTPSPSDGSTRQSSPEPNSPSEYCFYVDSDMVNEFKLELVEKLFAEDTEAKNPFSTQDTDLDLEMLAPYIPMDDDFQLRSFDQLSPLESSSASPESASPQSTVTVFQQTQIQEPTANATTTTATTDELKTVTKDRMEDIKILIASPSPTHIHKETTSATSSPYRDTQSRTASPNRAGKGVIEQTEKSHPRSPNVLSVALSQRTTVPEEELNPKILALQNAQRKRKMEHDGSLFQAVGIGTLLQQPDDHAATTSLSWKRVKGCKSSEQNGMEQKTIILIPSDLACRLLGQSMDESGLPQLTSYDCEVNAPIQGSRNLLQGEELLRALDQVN
Measurement protocol: Inhibition of HIF-1alpha in human H1299 cells at 100 nM after 72 hrs subsequently incubated for 12 hrs under hypoxic conditions by Western blot assay relative to control
Type: cell-based
Condition details: values are per cent of control
response, % of control values for the compounds below.
Value expressed in %; do not type the unit.

Q) Provide only the value of recorded response, % of control for COc1ccc(CC(OC(C)=O)c2ccc3c(c2OC)C=CC(C)(C)O3)nc1OC (configuration not stated)
A) 114

New cases:
Q) Provide only the value of recorded response, % of control for COc1ccc(CC(O)c2ccc3c(c2OC)C=CC(C)(C)O3)nc1OC (configuration not stated)
A) 75.2

###

response, % of control values for the compounds below.
Test system: Hypoxia-inducible factor 1-alpha (Homo sapiens)
Measurement protocol: Inhibition of HIF-1alpha in human H1299 cells at 100 nM after 72 hrs subsequently incubated for 12 hrs under hypoxic conditions by Western blot assay relative to control
Type: cell-based
Condition details: values are per cent of control
Value expressed in %; do not type the unit.

Below, each entry is followed by its recorded response, % of control result.
Q) Provide only the value of recorded response, % of control for COc1ccc(C(C)(C)C(=O)c2ccc3c(c2OC)C=CC(C)(C)O3)nc1OC
A) 99.9

Q) Provide only the value of recorded response, % of control for COc1ccc(CC(=O)c2ccc3c(c2OC)C=CC(C)(C)O3)nc1OC
A) 77.6

Q) Provide only the value of recorded response, % of control for COc1ccc(CC(OC(C)=O)c2ccc3c(c2OC)C=CC(C)(C)O3)c(F)c1OC (centres undefined)
A) 69.3

New cases:
Q) Provide only the value of recorded response, % of control for COc1ccc(C(C)C(OC(N)=O)c2ccc3c(c2OC)C=CC(C)(C)O3)c(F)c1OC (centres undefined)
A) 48.8

Q) Provide only the value of recorded response, % of control for CCC(=O)OC(c1ccc2c(c1OC)C=CC(C)(C)O2)C(C)c1ccc(OC)c(OC)c1F (centres undefined)
A) 63.7

Q) Provide only the value of recorded response, % of control for CCC(=O)OC(Cc1ccc(OC)c(OC)c1F)c1ccc2c(c1OC)C=CC(C)(C)O2 (centres undefined)
A) 77.3

Q) Provide only the value of recorded response, % of control for COc1ccc(C(C)(C)C(OC(C)=O)c2ccc3c(c2OC)C=CC(C)(C)O3)c(F)c1OC (centres undefined)
A) 83.4

Q) Provide only the value of recorded response, % of control for COc1ccc(C(C)C(=O)c2ccc3c(c2OC)C=CC(C)(C)O3)c(F)c1OC (centres undefined)
A) 78.6

Q) Provide only the value of recorded response, % of control for COc1ccc(C(C)C(OC(=O)N(C)C)c2ccc3c(c2OC)C=CC(C)(C)O3)c(F)c1OC (centres undefined)
A) 64.1
